Origin of values: patent US20240092922A1

Target: T1, Histidine-tagged human 4-1BB protein (h4-1BB-His) (human, UniProt Q07011 24-186)
T1 construct: not shown: histidine tag
Assay: SPR (Biacore T200), antibody on Protein A chip, h4-1BB-His injected;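 note: dissociation phase followed for 300 s, Kd derived as koff divided by kon from the kinetic fit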
Field: kon. Provide a value for each of the binders that follow.
// units = M⁻¹ s⁻¹; emit number, no label

Tell me the measured kon of 5F9-H1K3-IgG4 (antibody, V domains shown, humanized) VH: QVQLQESGPGLVKPSETLSLTCTVSGFSLTTYDISWVRQPPGKGLEWIGVIWTGGGTNYNSSFMSRVTISKDTSKNQVSLKLSSVTAADTAVYYCERVDYWGQGTTVTVSS VL: DVVMTQSPLSLPVTLGQPASISCRSSQSLVHSNGNTYLHWYQQRPGQSPKLLIYKVSNRFSGVPDRFSGSGSGTAFTFKISRVEAEDVGVYYCSQNTHVPWTFGGGTKLEIK , please.
206000

Tell me the measured kon of 5F9-H2K2-IgG4 (antibody, V domains shown, humanized) VH: QVQLKESGPGLVKPSETLSLTCTVSGFSLTTYDISWVRQPPGKGLEWLGVIWTGGGTNYNSSFMSRVTISKDTSKNQVSLKLSSVTAADTAIYYCERVDYWGQGTTVTVSS VL: DVVMTQSPLSLPVTLGQPASISCRSSQSLVHSNGNTYLHWFQQRPGQSPKLLIYKVSNRFSGVPDRFSGSGSGTAFTFKISRVEAEDVGVYYCSQNTHVPWTFGGGTKVEIK , please.
194000

Tell me the measured kon of 45-8E2-mHvKv-IgG2 (antibody, V domains shown) VH: EVKLLESGGGLVQPGGSLKLSCAASGFDFSRYWMSWVRQAPGKGLEWIGEIHPDSSAINYTPSLKDKFIISRDNAKNTLYLQMSKVRSEDTALYYCARSYYGRVFDYWGQGTTLTVSS VL: DIVMTQSPATLSVTPGDRVSLSCRASQSISDYLHWYQQKSHESPRLLIKYASQSISGIPPRFSGSGSGSDFTLSINSVEPEDVGMYYCQDGHSFPPTFGAGTKLELK , please.
323000
